All values here come from the supplement of paper PMC7877785.

- assay.comment: self-splicing fitness, log relative to wild type (ln ratio); higher = more splicing; Tetrahymena group I intron in knt gene, E. coli kanamycin selection, DiMSum; sequences stand for … in CUCUCU…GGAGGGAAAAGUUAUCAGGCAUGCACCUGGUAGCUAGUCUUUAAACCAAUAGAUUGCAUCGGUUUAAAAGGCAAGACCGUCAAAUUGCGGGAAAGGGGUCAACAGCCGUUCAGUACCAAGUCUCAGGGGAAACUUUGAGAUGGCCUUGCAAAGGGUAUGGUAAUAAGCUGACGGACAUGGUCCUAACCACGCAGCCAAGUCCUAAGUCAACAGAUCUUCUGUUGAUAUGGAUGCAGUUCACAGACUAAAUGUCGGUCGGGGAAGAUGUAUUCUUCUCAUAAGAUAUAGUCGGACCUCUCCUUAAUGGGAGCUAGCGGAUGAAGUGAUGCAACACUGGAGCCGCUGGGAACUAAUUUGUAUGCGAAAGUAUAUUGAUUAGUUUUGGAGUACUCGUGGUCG;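 further: selection with 25 µg/mL kanamycin versus none on LB agar overnight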
- experimental.setup: 30 °C
assay.metric: self-splicing fitness (ln)
Number only, please.

Exercise: Look at this sequence and give its reported self-splicing fitness (ln). ACGGAGCAAUAUUACGCUGG
Key: -3.77

Exercise: Any idea what self-splicing fitness (ln) was measured for UCCAAGCAAUAUUACGGGUG ?
Key: -1.63

Exercise: Name the reported self-splicing fitness (ln) value associated with the sequence CACCAGCAAUAUUACGCCGG
Key: -2.23

Exercise: Give the measured self-splicing fitness (ln) of AGACAGCAAUAUUACGUGAU .
Key: -2.36

Exercise: Query (sequence): GGGAAGCAAUAUUACGCACG ; field requested: self-splicing fitness (ln)
Key: -0.766

Exercise: For the sequence UUAUAGCAAUAUUACGGCAC , what self-splicing fitness (ln) is on record?
Key: -2.82

Exercise: Which self-splicing fitness (ln) is reported for this sequence? UUAAAGCAAUAUUACGAAUC
Key: -3.58

Exercise: // lookup self-splicing fitness (ln) for UCCCAGCAAUAUUACGGCUA
Key: -1.31

Exercise: Query (sequence): CUGUAGCAAUAUUACGAUCU ; field requested: self-splicing fitness (ln)
Key: -3.56

Exercise: Using the record for ACUGAGCAAUAUUACGGGAU , report its self-splicing fitness (ln).
Key: -3.03

More entries:
Exercise: Need self-splicing fitness (ln), item UAGUAGCAAUAUUACGCAUU
Key: -3.97

Exercise: Quick one: self-splicing fitness (ln) of AGACAGCAAUAUUACGUCUC ?
Key: -2.87
